# measured_target: T1, 4H464-AA
# T1 chain: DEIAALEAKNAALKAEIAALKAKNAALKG
# assay_explanation: two-hybrid library CCmax;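 note: natural log of median RNA to DNA barcode read ratio; higher means stronger binding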
# cond: mean of both orientations
property: interaction score
Numbers only.

[
  {
    "binder": "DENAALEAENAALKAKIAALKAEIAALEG [4H1257-AA]",
    "interaction score": -1.07
  },
  {
    "binder": "DEIAALEAENAALEAEIAALEAEIAALKG [4H130-AA]",
    "interaction score": 1.95
  },
  {
    "binder": "DKNAALEAKIAALKAENAALEAKIAALKG [4H3414-AA]",
    "interaction score": 1.47
  }
]

Next, consider the following binder.
**Q:** Give me measured interaction score, please, for this binder: DKNAALKAKIAALKAKIAALEAENAALEG [4H3939-AA]
**A:** -1.97
